Target: T1, cynomolgus monkey serum albumin (cynomolgus monkey, UniProt A2V9Z4 25-608)
T1 construct: Bought protein, immobilized on a CM5 chip by amine coupling; also called Cyno SA
Experiment: SPR (Biacore 8K), albumin immobilized on CM5 chip, 25 C, 1:1 kinetic fit
Criterion: Kd strictly under 0.5 nM. Met: yes (1). Not met: no (0).

RLN Analog 12 (other, Single-chain fusion: VHH - (G4Q)5 L1 - RLN2 B chain (desB1) - L2 of thirteen residues - RLN2 A chain (desA1-4)) EVQLLESGGGLVQPGGSLRLSCAASGRYIDETAVAWFRQAPGKGREFVAGIGGGVDITYYADSVKGRFTISRDNSKNTLYLQMNSLRPEDTAVYYCAARPGRPLITSKVADLYPYWGQGTLVTVSSGGGGQGGGGQGGGGQGGGGQGGGGQSWMEEVIKLCGRELVRAQIAICGMSTWSGGGSGGSGGSGGGALANKCCHVGCTKRSLARFC | yes (1)

Query: Hi there! Is Kd for RLN Analog 6 (other, Single-chain fusion: RLN2 B chain (desB1) - L2 - RLN2 A chain - PGPQ-repeat L1 - VHH (C-terminal)) SWMEEVIKLCGRELVRAQIAICGMSTWSGGGSGGSGGGQLYSALANKCCHVGCTKRSLARFCPGPQPGPQPGPQPGPQPGPQPGPQPGPQPGPQEVQLLESGGGLVQPGGSLRLSCAASGRYIDETAVAWFRQAPGKEREFVAGIGGGVDITYYADSVKGRFTISRDNSKNTLYLQMNSLRPEDTAVYYCAARPGRPLITSKVADLYPYWGQGTLVTVSSPP below 0.5 nM, do you know?
Result: no (0)

Query: // repeat for RLN Analog 10 (other, Single-chain fusion: RLN2 B chain (desB1) - L2 - RLN2 A chain - (PGPQ)8 L1 - VHH (C-terminal)) SWMEEVIKLCGRELVRAQIAICGMSTWSGGGSGGSGGGQLYSALANKCCHVGCTKRSLARFCPGPQPGPQPGPQPGPQPGPQPGPQPGPQPGPQEVQLLESGGGLVQPGGSLRLSCAASGRYIDETAVAWFRQAPGKGREFVAGIGGGVDITYYADSVKGRFTISRDNSKNTLYLQMNSLRPEDTAVYYCAARPGRPLITSKVADLYPYWGQGTLVTVSSPP and report
Result: no (0)

Query: Here is the next binder: RLN Analog 5 (other, Single-chain fusion: RLN2 B chain (desB1) - L2 - RLN2 A chain - (G4Q)5 L1 - VHH (C-terminal)) SWMEEVIKLCGRELVRAQIAICGMSTWSGGGSGGSGGGQLYSALANKCCHVGCTKRSLARFCGGGGQGGGGQGGGGQGGGGQGGGGQEVQLLESGGGLVQPGGSLRLSCAASGRYIDETAVAWFRQAPGKEREFVAGIGGGVDITYYADSVKGRFTISRDNSKNTLYLQMNSLRPEDTAVYYCAARPGRPLITSKVADLYPYWGQGTLVTVSSPP
Result: no (0)

Query: Same for RLN Analog 7 (other, Single-chain fusion: VHH - (G4Q)5 L1 - RLN2 B chain (desB1) - L2 - RLN2 A chain) EVQLLESGGGLVQPGGSLRLSCAASGRYIDETAVAWFRQAPGKGREFVAGIGGGVDITYYADSVKGRFTISRDNSKNTLYLQMNSLRPEDTAVYYCAARPGRPLITSKVADLYPYWGQGTLVTVSSGGGGQGGGGQGGGGQGGGGQGGGGQSWMEEVIKLCGRELVRAQIAICGMSTWSGGGSGGSGGGQLYSALANKCCHVGCTKRSLARFC
Result: yes (1)
